Data provenance: patent US12612363B2

Protocol details: Solubility screen of 5-MeO-DMT in solvents at room temperature and reflux
Applied conditions: isopropanol, organic solvent or mixture, thermodynamic from solid, 5-MeO-DMT Solubility Ambient, solvent Isopropanol (IPA); ambient (room temperature)
Result type: solubility (mg/mL)
One number for each entry, in mg/mL.

I am curious: what solubility value has been reported for COc1ccc2[nH]cc(CCN(C)C)c2c1 [5-MeO-DMT, 5-Methoxy-N,N-dimethyltryptamine] ?
180

====

Protocol details: Solubility screen of 5-MeO-DMT in solvents at room temperature and reflux
Applied conditions: 2-methyltetrahydrofuran, organic solvent or mixture, thermodynamic from solid, 5-MeO-DMT Solubility Ambient, solvent 2-Methyltetrahydrofuran (2-MeTHF); ambient (room temperature)
Result type: solubility (mg/mL)
Numbers only, in mg/mL.

I am curious: what solubility value has been reported for "COc1ccc2[nH]cc(CCN(C)C)c2c1" ?
250
